# procedure_details: Pharmacokinetics across species (statements covering several species)
# Format: in vivo, mice, rats, dogs, and monkeys
# condition_set: CD-1, Sprague Dawley, Beagle, mouse, rat, dog, cynomolgus monkey, plasma; oral dosing; mice, rats, dogs, and monkeys; read-out: median time to peak plasma concentration (tmax)
measured_property: Tmax

GET /values?readout=Tmax&item= "COc1ccc(-c2c(-c3ccc(C#N)c(F)c3)nc(N3CCC(N)CC3)n(C)c2=O)cc1F"
0.5 to 6 h

---

# assay_system: P-gp (human MDR1) (Homo sapiens (Human))
# Sequence (P08183 whole entry): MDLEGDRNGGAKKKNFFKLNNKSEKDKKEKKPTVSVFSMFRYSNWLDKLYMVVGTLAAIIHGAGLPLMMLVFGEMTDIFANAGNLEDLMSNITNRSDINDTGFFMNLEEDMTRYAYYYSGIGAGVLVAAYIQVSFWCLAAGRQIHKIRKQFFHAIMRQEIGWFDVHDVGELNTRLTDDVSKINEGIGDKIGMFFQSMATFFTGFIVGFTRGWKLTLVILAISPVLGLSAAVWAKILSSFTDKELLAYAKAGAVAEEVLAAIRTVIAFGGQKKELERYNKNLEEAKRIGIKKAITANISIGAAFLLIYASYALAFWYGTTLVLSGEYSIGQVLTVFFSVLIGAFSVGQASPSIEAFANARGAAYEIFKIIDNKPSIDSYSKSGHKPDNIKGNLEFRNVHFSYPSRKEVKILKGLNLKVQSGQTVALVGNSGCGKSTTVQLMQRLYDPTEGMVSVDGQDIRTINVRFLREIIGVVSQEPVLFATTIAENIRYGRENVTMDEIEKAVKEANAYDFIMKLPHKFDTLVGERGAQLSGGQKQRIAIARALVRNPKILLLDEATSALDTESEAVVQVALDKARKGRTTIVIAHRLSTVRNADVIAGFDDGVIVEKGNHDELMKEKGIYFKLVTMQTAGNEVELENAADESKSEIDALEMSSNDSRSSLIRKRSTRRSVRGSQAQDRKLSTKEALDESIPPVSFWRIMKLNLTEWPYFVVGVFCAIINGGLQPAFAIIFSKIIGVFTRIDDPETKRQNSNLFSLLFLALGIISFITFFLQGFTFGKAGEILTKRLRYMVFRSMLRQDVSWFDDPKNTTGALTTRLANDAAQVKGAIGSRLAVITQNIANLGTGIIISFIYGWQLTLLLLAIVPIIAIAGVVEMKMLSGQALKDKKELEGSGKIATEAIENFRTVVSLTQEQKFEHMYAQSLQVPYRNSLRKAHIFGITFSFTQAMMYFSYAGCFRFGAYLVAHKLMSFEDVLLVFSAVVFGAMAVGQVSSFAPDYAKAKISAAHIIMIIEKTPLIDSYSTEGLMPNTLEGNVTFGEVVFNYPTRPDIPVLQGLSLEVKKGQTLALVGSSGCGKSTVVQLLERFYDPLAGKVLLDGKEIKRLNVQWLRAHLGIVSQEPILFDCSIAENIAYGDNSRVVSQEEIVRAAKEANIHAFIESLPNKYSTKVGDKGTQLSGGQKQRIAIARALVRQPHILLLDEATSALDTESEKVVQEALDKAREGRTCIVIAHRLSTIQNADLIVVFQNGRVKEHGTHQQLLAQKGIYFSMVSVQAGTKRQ
# procedure_details: Permeability in MDR1-MDCK cells
# Type: in vitro ADME
# condition_set: dog, MDCK-MDR1, A→B direction
measured_property: Papp (×10⁻⁶ cm/s)
Answer with a number only, understood to be in ×10⁻⁶ cm/s.

Requested field: Papp. Item: "COc1ccc(-c2c(-c3ccc(C#N)c(F)c3)nc(N3CCC(N)CC3)n(C)c2=O)cc1F"
0.5

---

# procedure_details: Pharmacokinetics across species (statements covering several species)
# Assay type: in vivo, mice, rats, dogs, and monkeys
# condition_set: CD-1, Sprague Dawley, mouse, rat, plasma, intravenous; rodents
measured_property: half-life

// half-life lookup, key: "COc1ccc(-c2c(-c3ccc(C#N)c(F)c3)nc(N3CCC(N)CC3)n(C)c2=O)cc1F"
2 to 4 h

---

# procedure_details: Pharmacokinetics across species (statements covering several species)
# Type: in vivo, mice, rats, dogs, and monkeys
# condition_set: Beagle, dog, cynomolgus monkey, plasma, po; dogs and monkeys
# Protocol: Disparate half-lives were noted between rodents and non-rodents with values ranging from either 2 to 4 hours in rodents or from 12 to 20 hours in non-rodents.
measured_property: bioavailability

What does the data say about its bioavailability? Entry: "COc1ccc(-c2c(-c3ccc(C#N)c(F)c3)nc(N3CCC(N)CC3)n(C)c2=O)cc1F"
82 to 100%
